Each record here notes measured TGI.
# Test system: HCC-2998 colon
# test name: NCI tumour cell line growth inhibition, 48 h

Some solved cases for reference:
molecule: CC(N)CC(=O)O (stereo not given)
TGI: > 5000 µM
//
molecule: CSC(=N)N1N=C2/C(=C/c3ccccc3)CCC[C@H]2[C@H]1c1ccccc1
TGI: 10.4 µM
//
molecule: O=C(O)Cc1cccc2c(=O)c3cccc([N+](=O)[O-])c3[nH]c12
TGI: > 100 µM
//
molecule: O=C(O)C12CC3CC(C1)C2C=C3P(=O)(O)O (stereo not given)
TGI: > 100 µM
//
molecule: CN(C)C(F)=PC(F)(F)F (stereo not given)
TGI: > 100 µM
//
molecule: COC1=C(OC)[C@]2(OC)c3c(O)c(OC)c4c(c3O[C@@]23O[C@@H](c2ccccc2)CC=C3C1=O)[C@@H](OC)C[C@H](c1ccccc1)O4
TGI: 3.32 µM

Query :: Entry COc1c(CC=C(C)C)c(O)c(C(CC(C)C)c2c(O)c(CC=C(C)C)c(O)c(C(C)=O)c2O)c(O)c1C(C)=O (stereo not given) : reported TGI = ?
Result :: 1.69 µM

Query :: Entry CC1SC(c2ccc(Cl)cc2)N(CCc2cccs2)C1=O (stereo not given) : reported TGI = ?
Result :: 3.4 µM

Query :: Entry O=[N+]([O-])C(=C/c1cccc2ccccc12)/C(=C\c1cccc2ccccc12)[N+](=O)[O-] : reported TGI = ?
Result :: 5.41 µM

Query :: Entry O/N=C1/CCCc2nonc21 : reported TGI = ?
Result :: > 100 µM

====

Each record here notes measured TGI.
# System: UACC-62 melanoma
# test name: NCI tumour cell line growth inhibition, 48 h

Some solved cases for reference:
compound: C=C[C@]1(O[Si](C)(C)C)C[C@@]2(C(=O)OCC)C(O)C(=O)N3CCc4cc(OC)c(OC)cc4[C@]312 (stereo not given in full)
result: > 100 µM
--
compound: CC(=O)CC(=O)CCC(=O)Nc1cccc(C(F)(F)F)c1
result: > 100 µM
--
compound: CCOC(=O)C(Cc1ccc(N(CCCl)CCCl)cc1)NC(=O)C(Cc1ccccc1)NC(C)=O (stereo not given)
result: > 0.277 µM
--
compound: O=[N+]([O-])/C=C/c1ccc(Cl)cc1Cl
result: 31.3 µM

Note: attention shifts to another entry.
Query :: Entry CSc1c(C#N)c(S)n(-c2ccc(Cl)cc2)c(=O)c1C#N : reported TGI = ?
Result :: > 100 µM

====

# System: MDA-MB-435
# test name: NCI tumour cell line growth inhibition, 48 h
measurement name: TGI

Some solved cases for reference:
compound: NCc1ccc(-c2nc(-c3ccc(Cl)c(O)c3)c(-c3ccncc3)[nH]2)cc1
result: > 25 µM
//
compound: C[C@H](NC(=O)CNC(=O)CCCCCC(=O)NCC(=O)N[C@@H](C)C(=O)OCc1ccccc1)C(=O)OCc1ccccc1
result: > 100 µM
//
compound: COc1cc(-c2ncn(/C=C\c3nnco3)n2)cc(C(F)(F)F)c1
result: 3.33 µM
//
compound: c1n[nH]cc1C12C3C4C5C3C1C5C42 (stereo unspecified)
result: > 100 µM
//
compound: c1cc(CN2CCNCCNCCNCC2)cc(CN2CCNCCNCCNCC2)c1
result: > 100 µM

Note: attention shifts to another entry.
Query :: Test system MDA-MB-435; read-out TGI; what value for C/C(N)=N/OCc1nc(C)no1 ?
Result :: > 100 µM

Data origin: PubChem BioAssay (NCI)
